B1: PhoQ; a variant is named by its letters at X, in order, P23837 (parent)
chain: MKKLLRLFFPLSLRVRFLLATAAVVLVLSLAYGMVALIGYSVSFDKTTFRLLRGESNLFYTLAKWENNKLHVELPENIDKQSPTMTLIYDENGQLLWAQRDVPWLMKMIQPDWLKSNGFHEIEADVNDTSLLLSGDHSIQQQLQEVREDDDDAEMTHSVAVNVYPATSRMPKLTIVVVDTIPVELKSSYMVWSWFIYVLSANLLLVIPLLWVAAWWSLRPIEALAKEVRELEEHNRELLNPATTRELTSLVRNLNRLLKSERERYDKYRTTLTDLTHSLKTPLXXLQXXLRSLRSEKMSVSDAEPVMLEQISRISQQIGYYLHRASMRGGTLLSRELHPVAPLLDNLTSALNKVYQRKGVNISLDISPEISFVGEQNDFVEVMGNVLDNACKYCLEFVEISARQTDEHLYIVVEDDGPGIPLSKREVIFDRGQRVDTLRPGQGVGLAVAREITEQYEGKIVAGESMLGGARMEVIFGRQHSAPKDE

# Variants of: B1
# Test: enrichment ratio after two sorts for PhoP signalling (ratio (wild type AVST 3.29)); higher = more functional
# Condition notes: with PhoP (E. coli)
Whole data set: some 140,000 sequences, median “enrichment ratio after two sorts for PhoP signalling” near 0, cut for the highest 2% near 11. The sample as a whole holds a higher share of the highest values than the screen did.
enrichment ratio values by entry

>  <Sequence variant>
IRYD

>  <Quantity name>
enrichment ratio

>  <Endpoint value>
≤ 0.25

$$$$
>  <Sequence variant>
LYSK

>  <Quantity name>
enrichment ratio

>  <Endpoint value>
≤ 0.25

$$$$

Problem: # enrichment ratio lookup, item QSGM
Result: 21.6

Problem: Here is the next variant: SRIC
Result: ≤ 0.25

Problem: Try this variant next: LYKG
Result: ≤ 0.25

Problem: Also YKHK ?
Result: ≤ 0.25
